- test: Inhibition of human DNA polymerase beta
measured.metric: IC50

C[C@@]1(O)[C@H](O)[C@@H](COP(=O)(O)OP(=O)(O)OP(=O)(O)O)O[C@H]1n1cc(-c2ncon2)c2c(N)ncnc21: > 10 µM
C[C@@]1(F)[C@H](O)[C@@H](COP(=O)(O)OP(=O)(O)OP(=O)(O)O)O[C@H]1n1cc(-c2ccn[nH]2)c2c(N)ncnc21: > 10 µM

Next up:
The value of IC50 measured for the compound "C[C@@]1(O)[C@H](O)[C@@H](COP(=O)(O)OP(=O)(O)OP(=O)(O)O)O[C@H]1n1cc(-c2cc[nH]n2)c2c(N)ncnc21" turned out to be > 10 µM

---

- System: Liver
- test: Drug uptake in Wistar Han rat liver assessed as nucleotide triphosphate level per gram of tissue at 20 mg/kg, iv measured after 6 hrs
- Assay type: ADME, organism-based
- Design: dose 20 mg/kg, route intravenous
- test.context: in vivo
measured.metric: Drug uptake (nmol/g)
Express it in nmol/g; write the number only.

Test item "C[C@@]1(O)[C@H](O)[C@@H](CO)O[C@H]1n1cc(-c2ncon2)c2c(N)ncnc21" ; Liver; reported Drug uptake was 3.9

---

- test: Inhibition of human DNA polymerase alpha
pIC50: −log10 of the molar value.
measured.metric: pIC50

C[C@@]1(O)[C@H](O)[C@@H](COP(=O)(O)OP(=O)(O)OP(=O)(O)O)O[C@H]1n1cc(-c2cc[nH]n2)c2c(N)ncnc21: < 5.00
C[C@@]1(O)[C@H](O)[C@@H](COP(=O)(O)OP(=O)(O)OP(=O)(O)O)O[C@H]1n1cc(-c2ncon2)c2c(N)ncnc21: < 5.00

Now consider the entry below.
What the record says about "C[C@@]1(F)[C@H](O)[C@@H](COP(=O)(O)OP(=O)(O)OP(=O)(O)O)O[C@H]1n1cc(-c2ccn[nH]2)c2c(N)ncnc21" : pIC50 is < 5.00

---

- System: Liver
- test: Drug uptake in Wistar Han rat liver assessed as nucleotide triphosphate level per gram of tissue at 20 mg/kg, iv measured after 3 hrs
- Type: ADME, organism-based
- Parameters: dose 20 mg/kg, route intravenous
- test.context: in vivo
measured.metric: Drug uptake (nmol/g)
Give the quantity in nmol/g, number only.

"C[C@@]1(O)[C@H](O)[C@@H](CO)O[C@H]1n1cc(-c2ncon2)c2c(N)ncnc21" has a reported Drug uptake of 11.9

---

- test: Oral bioavailability in Wistar Han rat at 1 mg/kg
- Format: ADME, organism-based
- test.context: in vivo
measured.metric: bioavailability (%)
The answer is to be given in %; state only the numeric part.

// field: bioavailability; key: "C[C@@]1(O)[C@H](O)[C@@H](CO)O[C@H]1n1cc(-c2ncon2)c2c(N)ncnc21" ; value = 14.7
